Tested on: Vero E6 infected with SARS-CoV-2
Experiment: inhibition of SARS-CoV-2 cytopathic effect; higher = more antiviral protection, active = above 15
Conditions: 100 nM; 48 h
measured.metric: inhibition of SARS-CoV-2 cytopathic effect (%)
Respond with the bare value in %.

### Prompt Quick one: inhibition of SARS-CoV-2 cytopathic effect for "Nc1cc(-c2ccncc2)c[nH]c1=O" ?
### Response -3.46

### Prompt // next record "COc1ccc(/C=C2\CCCN=C2c2cccnc2)c(OC)c1"
### Response 0.18

### Prompt // next record "COc1ccc(S(=O)(=O)N2c3ccc(Cl)cc3[C@](O)(c3ccccc3Cl)[C@@H]2C(=O)N2CCC[C@H]2C(N)=O)cc1OC"
### Response 0.53

### Prompt // next record C[C@@H](C1=C(CCN(C)C)Cc2ccccc21)c1ccccn1 (racemic)
### Response 0.085

### Prompt // next record "O=C1NC(=O)C(c2ccccc2[N+](=O)[O-])=C1Nc1ccc(O)c(Cl)c1"
### Response -2.09

### Prompt // next record "O=S(=O)(O)c1ccc(O)cc1"
### Response 0.79

### Prompt // next record "OCCCCO"
### Response -1.14

### Prompt // next record "Cc1cc2c(cc1C(F)(F)F)N(C(=O)Nc1ccc(Oc3cccnc3C)nc1)CC2"
### Response -0.25

### Prompt // next record "COc1ccc(S(=O)(=O)Nc2cccnc2Nc2ccc(O)cc2)cc1"
### Response 1.28

### Prompt // next record "O=C(O)Cc1cccc2c(=O)cc(-c3ccccc3)oc12"
### Response 1.42

* * *

Tested on: Vero E6 infected with SARS-CoV-2
Assay: inhibition of SARS-CoV-2 cytopathic effect; higher = more antiviral protection, active = above 15
Details: 10000 nM; 48 h
Would you mind telling me the reported inhibition of SARS-CoV-2 cytopathic effect of each entry?
Respond with the bare value in %.

### Prompt Missing value: inhibition of SARS-CoV-2 cytopathic effect, Vero E6 infected with SARS-CoV-2, entry "CO[C@@H]1[C@@H](OC(N)=O)[C@@H](O)[C@H](Oc2ccc3c(O)c(NC(=O)c4ccc(O)c(CC=C(C)C)c4)c(=O)oc3c2C)OC1(C)C" . Fill in?
### Response 0.14

### Prompt // next record "Cc1cc(NC(=O)C2=C(O)c3ccccc3S(=O)(=O)N2C)no1"
### Response -0.72

### Prompt // next record "CCN(CC)CCOC(=O)C(c1ccccc1)c1ccccc1"
### Response -0.25

### Prompt // next record "O=C(NCc1ccc(Oc2ccccc2)cc1)c1nc(-c2cc(Br)c(O)c(Br)c2)no1"
### Response 0.36

### Prompt // next record "CCc1ccc(OCc2ccccc2C(=O)Nc2ccc3nc(C)cc(N)c3c2)cc1"
### Response -28.4

### Prompt // next record CCCCCCNC(=O)n1cc(F)c(=O)[nH]c1=O [Carmofur]
### Response -0.73

### Prompt // next record "CC(C)N(CCCNC(=O)Nc1ccc(C(C)(C)C)cc1)C[C@H]1O[C@@H](n2ccc3c(N)ncnc32)[C@H](O)[C@@H]1O"
### Response 0.43

### Prompt // next record NS(=O)(=O)c1ccc(C(=O)O)cc1 [carzenide]
### Response -0.52

### Prompt // next record CCCNC(C)C(=O)Nc1ccccc1C (centres undefined)
### Response 2
